test: in vivo; details: male, SD, rat, po, 4 mg/kg
Readout name: Cmax (ng/mL)
Respond with the bare value in ng/mL.

Please supply the value of reported Cmax for the item `COc1ccc(-c2ccc3ncc4c(c3n2)N(C2CCN(C(=O)[C@@H](C)O)CC2)C(=O)N(C)C4)cn1`
251

---

molecular target: PI3Kα (Homo sapiens (Human)); assay: PI3K inhibitory activity, Method 1 activity test; format: biochemical; conditions: PIP2 50 μM, ATP 25 μM
Sequence (P42336 whole entry): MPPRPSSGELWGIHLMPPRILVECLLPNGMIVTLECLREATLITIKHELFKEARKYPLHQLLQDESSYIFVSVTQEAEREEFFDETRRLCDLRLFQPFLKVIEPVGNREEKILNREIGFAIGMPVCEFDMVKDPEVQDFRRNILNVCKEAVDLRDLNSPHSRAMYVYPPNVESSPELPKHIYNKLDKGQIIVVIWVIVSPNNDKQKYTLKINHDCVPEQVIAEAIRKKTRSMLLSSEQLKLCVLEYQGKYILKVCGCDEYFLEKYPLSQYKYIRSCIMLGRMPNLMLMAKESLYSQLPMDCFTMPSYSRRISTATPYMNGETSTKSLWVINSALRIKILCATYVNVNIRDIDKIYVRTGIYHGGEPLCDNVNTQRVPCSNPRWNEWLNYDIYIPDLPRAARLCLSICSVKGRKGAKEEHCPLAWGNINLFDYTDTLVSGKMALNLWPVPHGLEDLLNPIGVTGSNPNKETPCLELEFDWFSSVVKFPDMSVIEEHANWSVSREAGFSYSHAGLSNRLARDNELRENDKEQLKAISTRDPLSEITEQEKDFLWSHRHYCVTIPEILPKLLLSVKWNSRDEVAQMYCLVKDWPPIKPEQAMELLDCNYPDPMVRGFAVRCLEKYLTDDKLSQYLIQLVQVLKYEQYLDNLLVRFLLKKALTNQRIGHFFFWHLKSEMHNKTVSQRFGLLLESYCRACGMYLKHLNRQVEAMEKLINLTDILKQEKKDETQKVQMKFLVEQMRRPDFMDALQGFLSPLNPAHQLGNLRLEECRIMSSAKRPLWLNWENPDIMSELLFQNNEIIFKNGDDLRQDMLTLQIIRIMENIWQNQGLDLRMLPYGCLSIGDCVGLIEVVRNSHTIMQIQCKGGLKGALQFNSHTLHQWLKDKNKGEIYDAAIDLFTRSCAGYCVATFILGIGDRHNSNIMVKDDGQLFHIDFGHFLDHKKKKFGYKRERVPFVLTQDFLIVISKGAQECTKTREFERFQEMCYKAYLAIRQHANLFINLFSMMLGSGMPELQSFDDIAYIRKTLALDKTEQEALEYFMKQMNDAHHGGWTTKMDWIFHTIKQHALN
Sequence (P27986 whole entry partner): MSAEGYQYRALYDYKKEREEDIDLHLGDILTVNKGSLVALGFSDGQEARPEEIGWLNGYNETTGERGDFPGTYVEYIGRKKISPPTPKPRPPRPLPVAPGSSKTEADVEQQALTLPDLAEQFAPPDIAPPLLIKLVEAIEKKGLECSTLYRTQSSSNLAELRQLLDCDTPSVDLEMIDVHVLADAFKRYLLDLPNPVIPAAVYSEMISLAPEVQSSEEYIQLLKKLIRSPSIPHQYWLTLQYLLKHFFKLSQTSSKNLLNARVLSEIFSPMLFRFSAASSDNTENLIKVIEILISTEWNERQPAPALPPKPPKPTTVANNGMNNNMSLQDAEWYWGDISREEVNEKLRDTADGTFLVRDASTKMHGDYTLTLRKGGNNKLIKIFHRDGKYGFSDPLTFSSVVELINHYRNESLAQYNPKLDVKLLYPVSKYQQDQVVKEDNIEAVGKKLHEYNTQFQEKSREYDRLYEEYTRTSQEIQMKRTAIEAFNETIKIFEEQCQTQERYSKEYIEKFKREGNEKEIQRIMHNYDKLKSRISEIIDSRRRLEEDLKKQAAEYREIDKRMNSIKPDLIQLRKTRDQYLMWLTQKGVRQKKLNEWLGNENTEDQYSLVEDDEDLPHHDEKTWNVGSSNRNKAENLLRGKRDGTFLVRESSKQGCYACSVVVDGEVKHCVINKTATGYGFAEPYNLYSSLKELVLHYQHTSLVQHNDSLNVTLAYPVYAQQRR
pIC50 values for the compounds below.
# pIC50 is unitless: minus log10 of the molar concentration; print number only

# Compound, pIC50
data = [
    ("CN1Cc2cnc3ccc(-c4ccc(C#N)nc4)nc3c2N(c2cccc(C(F)(F)F)c2)C1=O", 7.47),
]

Identify the reported pIC50 for the following entry. `CN1Cc2cnc3ccc(-c4cnc(N)nc4)nc3c2N(c2cccc(C(F)(F)F)c2)C1=O`
8.48

Quote pIC50 reported for `CN1Cc2cnc3ccc(-c4ccc(N)nc4)nc3c2N(c2cccc(C(F)(F)F)c2)C1=O` please.
7.98

Supply reported pIC50 belonging to this compound: `CN1Cc2cnc3ccc(-c4ccc(-n5cccn5)nc4)nc3c2N(c2cccc(C(F)(F)F)c2)C1=O`
6.06

---

experiment: In vivo pharmacokinetics in rats, intravenous bolus injection (IV); conditions: male, SD, rat, plasma, iv, 2 mg/kg
Form field: AUC (one value per entry).

Solved entries:
# Molecule, AUC
rows = [
    ("Cn1c(=O)n(-c2ccc(C(C)(C)C#N)cc2)c2c3cc(-c4cnc5ccccc5c4)ccc3ncc21 [BEZ-235, reference compound]", "1440 ng·h/mL"),
    ("CN1Cc2cnc3ccc(-c4cnc(N)nc4)nc3c2N(c2cccc(C(F)(F)F)c2)C1=O", "735 ng·h/mL"),
    ("CN1Cc2cnc3ccc(-c4ccc(N)nc4)nc3c2N(c2cccc(C(F)(F)F)c2)C1=O", "1700 ng·h/mL"),
    ("CN1Cc2cnc3ccc(-c4cnc5[nH]ccc5c4)nc3c2N(c2cccc(C(F)(F)F)c2)C1=O", "357 ng·h/mL"),
    ("CC(=O)Nc1ccc(-c2ccc3ncc4c(c3n2)N(c2cccc(C(F)(F)F)c2)C(=O)N(C)C4)cn1", "275 ng·h/mL"),
]

# next molecule below
Please look at this molecule and report its AUC: COc1ccc(-c2ccc3ncc4c(c3c2)n(-c2ccc(N3CCNCC3)c(C(F)(F)F)c2)c(=O)n4C)cn1 [BGT-226, reference compound]
1520 ng·h/mL

---

biological target: mTOR (Homo sapiens (Human)); assay: biochemical; type: binding
# Lookup of reported IC50 keyed by entry

Annotate the compound COc1ccc(-c2ccc3ncc4c(c3n2)N(C2CCNCC2)C(=O)N(C)C4)cn1 [Compound 114] with its measured IC50.
732 nM

Quick one: give measured IC50 for COc1ccc(-c2ccc3ncc4c(c3n2)N(C2CCN(C(=O)[C@@H](C)O)CC2)C(=O)N(C)C4)cn1 [Compound 86]
257 nM

---

system: SKOV-3; assay: Cell viability assay by XTT method, SKOV-3; type: cell-based; conditions: Homo sapiens, SK-OV-3
Note to self: IC50 under 500 nM means condition met, ties and anything higher get condition not met.

Answered examples (6):
# Given smiles, Tested target, Group label
data = [
    ("CN1Cc2cnc3ccc(-c4cnc(N)nc4)nc3c2N(c2cccc(C(F)(F)F)c2)C1=O", "SKOV-3", "condition not met"),
    ("CN1Cc2cnc3ccc(-c4cnc5ccccc5c4)nc3c2N(c2ccc(N3CCNCC3)c(C(F)(F)F)c2)C1=O", "SKOV-3", "condition not met"),
    ("CN1Cc2cnc3ccc(-c4ccc(N)nc4)nc3c2N(c2cccc(C(F)(F)F)c2)C1=O", "SKOV-3", "condition met"),
    ("COc1ccc(-c2ccc3ncc4c(c3n2)N(c2ccc(C(C)(C)C#N)cc2)C(=O)N(C)C4)cn1", "SKOV-3", "condition met"),
    ("CC(=O)Nc1ccc(-c2ccc3ncc4c(c3n2)N(c2cccc(C(F)(F)F)c2)C(=O)N(C)C4)cn1", "SKOV-3", "condition not met"),
    ("CN1Cc2cnc3ccc(-c4cnc5ccccc5c4)nc3c2N(c2ccc(C(C)(C)C#N)cc2)C1=O", "SKOV-3", "condition met"),
]

We next turn to a different molecule, shown below.
API: query returns whether the molecule falls strictly under 500 nM in IC50. Query: `CN1Cc2cnc3ccc(-c4cnc5[nH]ccc5c4)nc3c2N(c2cccc(C(F)(F)F)c2)C1=O`
condition not met
